- ASSAY OVERVIEW: NCI Yeast Anticancer Drug Screen. Data for the mec2-1 strain (AID 157)
- MEASUREMENT SETUP: S. cerevisiae mec2-1 strain, at 33.0 µM, stronger effect = higher value
The panel holds about 79,000 compounds, 15% with a hit somewhere; the sample as a whole holds those more often.
PARAMETER MEASURED: growth inhibition (%)
Give the quantity in %, number only.

A selection of reference data follows.
O=C(O)CNC(c1ccccc1)(c1ccccc1)c1ccccc1	91
O=[N+]([O-])c1cc(Cl)ccc1S(=O)(=O)c1ccc(Cl)cc1[N+](=O)[O-]	89
CC(C)C(c1ccccc1)c1ccccc1	1
NC(=S)N1N=C2c3ccccc3CC[C@H]2[C@@H]1c1ccc(Cl)cc1	58
COc1ccccc1/C=C\C(=O)C1COCN1 (centres undefined)	38

Ask: Record request: growth inhibition value, item `CN(CCOc1ccc(Cl)cc1)CCOc1ccc(Cl)cc1`
Result: 93

Ask: Record request: growth inhibition value, item `CC1(C)CC(=O)C(C=NC(=S)C(N)=S)=C(O)C1`
Result: -19

Ask: Record request: growth inhibition value, item `Cn1c(-c2ccc(/C=N\N3CCN(/N=C/c4ccc(-c5c[n+]6ccsc6n5C)cc4)CC3)cc2)c[n+]2ccsc12`
Result: 41

Ask: Record request: growth inhibition value, item `CCCCCCC=C(C(=O)OCC)C(=O)OCC`
Result: 5

Ask: Record request: growth inhibition value, item `C1=CCN([B-](c2ccccc2)[C+]2CCCCC2)C=C1`
Result: 76

Ask: Record request: growth inhibition value, item `CC(C)S(=O)(=O)/C=C\S(=O)(=O)C(C)C`
Result: 58

Ask: Record request: growth inhibition value, item `CCC(/C=C/c1ccccc1)=N\Nc1ccc(Cl)cc1`
Result: 6

Ask: Record request: growth inhibition value, item `O=C1c2cccc3cccc(c23)C(=O)N1O`
Result: 36

Ask: Record request: growth inhibition value, item `CCN(CC)CC(=O)c1ccc2cc(Cl)c3ccccc3c2c1`
Result: 99

Ask: Record request: growth inhibition value, item `O=C(NO)c1coc2ccccc2c1=O`
Result: -4

Ask: Record request: growth inhibition value, item `Nc1ccc2c(c1)C(=O)c1c(F)cccc1-2`
Result: 13

Ask: Record request: growth inhibition value, item `Cc1ccc(C)c(C(=N)c2ccccc2Cc2ccccc2)c1`
Result: 95

Ask: Record request: growth inhibition value, item COc1ccc(C2CC(C)(N3CCCC3)Oc3cc4c(cc32)OCO4)cc1 (centres undefined)
Result: 1

Ask: Record request: growth inhibition value, item OC(Cc1cccc2ccccc12)CN1CCC(c2ccccc2)CC1 (centres undefined)
Result: 86

Ask: Record request: growth inhibition value, item COC(=O)C(Cc1c[nH]c2ccccc12)N1CN(C)c2ccccc2C1=O (centres undefined)
Result: 5

Ask: Record request: growth inhibition value, item `Nc1cccc(-c2cc[cH-]c2)c1.[Fe+2].c1cc[cH-]c1`
Result: 3
